System: VERO
method: Anti-proliferation IC50, VERO
Format: cell-based
studyConditions: Chlorocebus sabaeus, Table 1, compounds of formula I, NI = no inhibition up to 500 μM, read-out: VERO (IC50)
measureName: IC50 (µM)
# value in µM; strip the unit string

Quick note, IC50 for CCC1OC(=O)[C@H](C)[C@H](OC2C[C@@](C)(OC)[C@@H](O)[C@H](C)O2)[C@H](C)[C@@H](OC2O[C@H](C)C[C@H](N(C)Cc3cn(CCCCc4ccc(-n5cc(C)ccc5=O)cc4)nn3)[C@H]2O)[C@@](C)(OC)C[C@@H](C)C(=O)[C@H](C)[C@@H](O)[C@]1(C)O (some centres unmarked) [Compound 14b] landed at 33.3

====

Test system: VERO
method: Anti-proliferation IC50, VERO
Format: cell-based
studyConditions: Chlorocebus sabaeus, Table 1, compounds of formula I, NI = no inhibition up to 500 μM, read-out: VERO (IC50)
Readings of pIC50 for the listed molecules
Units for pIC50: none; it is -log10 of a concentration expressed in mol/L.

Quick note, pIC50 for Cc1ccc(=O)n(-c2ccccc2)c1 [Pirfenidone (Pir), Pirfenidone, reference compound] landed at 1.97

Quick note, pIC50 for CCC1OC(=O)[C@H](C)[C@H](OC2C[C@@](C)(OC)[C@@H](O)[C@H](C)O2)[C@H](C)[C@@H](OC2O[C@H](C)C[C@H](N(C)CCCCCC#Cc3ccc(-n4cc(C)ccc4=O)cc3)[C@H]2O)[C@@](C)(OC)C[C@@H](C)C(=O)[C@H](C)[C@@H](O)[C@]1(C)O (stereo partly shown) [Compound 19e] landed at 4.88

Quick note, pIC50 for CCC1OC(=O)[C@H](C)[C@H](OC2C[C@@](C)(OC)[C@@H](O)[C@H](C)O2)[C@H](C)[C@@H](OC2O[C@H](C)C[C@H](N(C)CCCCc3ccc(-n4cc(C)ccc4=O)cc3)[C@H]2O)[C@@](C)(OC)C[C@@H](C)C(=O)[C@H](C)[C@@H](O)[C@]1(C)O (stereo partly shown) [Compound 14a] landed at 4.72

====

Readings of IC50 for the listed compounds
System: VERO
method: Anti-proliferation IC50, VERO
Format: cell-based
studyConditions: Chlorocebus sabaeus, Table 1, compounds of formula I, NI = no inhibition up to 500 μM, read-out: VERO (IC50)
# value in µM; strip the unit string

INSERT INTO measurements (compound, unitabbrev, recordedmeasurement) VALUES
  ('CCC1OC(=O)[C@H](C)[C@H](OC2C[C@@](C)(OC)[C@@H](O)[C@H](C)O2)[C@H](C)[C@@H](OC2O[C@H](C)C[C@H](N(C)CCCC#Cc3ccc(-n4cc(C)ccc4=O)cc3)[C@H]2O)[C@@](C)(OC)C[C@@H](C)C(=O)[C@H](C)[C@@H](O)[C@]1(C)O (some centres unmarked) [Compound 19c]', 'µM', 55.5);

Then this compound:
Quick note, IC50 for CCC1OC(=O)[C@H](C)[C@H](OC2C[C@@](C)(OC)[C@@H](O)[C@H](C)O2)[C@H](C)[C@@H](OC2O[C@H](C)C[C@H](N(C)Cc3ccc(-c4cn(CCc5ccc(-n6cc(C)ccc6=O)cc5)nn4)cc3)[C@H]2O)[C@@](C)(OC)C[C@@H](C)C(=O)[C@H](C)[C@@H](O)[C@]1(C)O (some centres unmarked) [Compound 12c] landed at 14.2
